All values here come from ChEMBL document CHEMBL3885861.

organism: Rattus norvegicus; assay: Open TG-GATES - Regimen: Single; type: toxicity, organism-based, Sprague-Dawley; set-up: regimen Single, gender Male, age 6 weeks; settings: in vivo, po, 0 mg/kg, 24 h, tissue Blood, route gavage, dose level Control
reported-metric: Ret (%)
Numbers only here, please. The scale is %.

Q) # input compound: `CC1=C(/C=C/C(C)=C/C=C/C(C)=C/CO)C(C)(C)CCC1` ; wanted: its Ret
A) 7.8

Q) # input compound: `Cc1ccc(C)c(OCCCC(C)(C)C(=O)O)c1` ; wanted: its Ret
A) 6.6

Q) # input compound: `NC(N)=Nc1nc(CSCCC(N)=NS(N)(=O)=O)cs1` ; wanted: its Ret
A) 6.6

Q) # input compound: `COc1cc2c(c(OC)c1OC)-c1ccc(OC)c(=O)cc1[C@@H](NC(C)=O)CC2` ; wanted: its Ret
A) 10.2

Q) # input compound: CC(C)OC(=O)C(C)(C)Oc1ccc(C(=O)c2ccc(Cl)cc2)cc1 [FENOFIBRATE] ; wanted: its Ret
A) 9.3

====

species: Rattus norvegicus; assay: Open TG-GATES - Regimen: Single; type: toxicity, organism-based, Sprague-Dawley; set-up: regimen Single, gender Male, age 6 weeks; conditions: in vivo, po, 100 mg/kg, 24 h, tissue Plasma, route gavage, dose level High
Give TP for every item shown.
Numbers only here, please. The scale is g/dL.

Q) # input compound: CC1=C(/C=C/C(C)=C/C=C/C(C)=C/CO)C(C)(C)CCC1 [RETINOL] ; wanted: its TP
A) 5.5

Q) # input compound: CN(C)CCCN1c2ccccc2CCc2ccccc21 [IMIPRAMINE] ; wanted: its TP
A) 5.6

Q) # input compound: CN(C)CCCN1c2ccccc2CCc2ccc(Cl)cc21 [CLOMIPRAMINE] ; wanted: its TP
A) 5.7

Q) # input compound: `CN(C)CCN(Cc1cccs1)c1ccccn1` ; wanted: its TP
A) 5.2

====

Give Ht for every item shown.
species: Rattus norvegicus; assay: Open TG-GATES - Regimen: Daily Repeat; assay type: toxicity, organism-based, Sprague-Dawley; set-up: regimen Daily Repeat, gender Male, age 6 weeks; details: in vivo, po, 300 mg/kg, […], tissue Blood, route gavage, dose level Middle, time 7 day
Numbers only here, please. The scale is %.

Q) # input molecule: COc1ccc2[nH]c([S+]([O-])Cc3ncc(C)c(OC)c3C)nc2c1 (stereo not given) ; wanted: its Ht
A) 39.5

Q) # input molecule: CCOC(=O)CCC(=O)O[C@H]1[C@H](O[C@@H]2[C@@H](C)[C@H](O[C@H]3C[C@@](C)(OC)[C@@H](O)[C@H](C)O3)[C@@H](C)C(=O)O[C@H](CC)[C@@](C)(O)[C@H](O)[C@@H](C)C(=O)[C@H](C)C[C@@]2(C)O)O[C@H](C)C[C@@H]1N(C)C [ERYTHROMYCIN ETHYLSUCCINATE] ; wanted: its Ht
A) 40.6

Q) # input molecule: `COC1=CC(=O)C[C@@H](C)[C@]12Oc1c(Cl)c(OC)cc(OC)c1C2=O` ; wanted: its Ht
A) 40.7

Q) # input molecule: `NC(N)=Nc1nc(CSCCC(N)=NS(N)(=O)=O)cs1` ; wanted: its Ht
A) 38.8

Q) # input molecule: CCOc1ccc(NC(=O)CC(C)O)cc1 (stereo not given) ; wanted: its Ht
A) 39.6
